Examples of compounds with documented IC50 follow.
# assay_target: human Yes1 enzyme (Homo sapiens, UniProt P07947)
# Construct: made in house
# Sequence (P07947 whole entry): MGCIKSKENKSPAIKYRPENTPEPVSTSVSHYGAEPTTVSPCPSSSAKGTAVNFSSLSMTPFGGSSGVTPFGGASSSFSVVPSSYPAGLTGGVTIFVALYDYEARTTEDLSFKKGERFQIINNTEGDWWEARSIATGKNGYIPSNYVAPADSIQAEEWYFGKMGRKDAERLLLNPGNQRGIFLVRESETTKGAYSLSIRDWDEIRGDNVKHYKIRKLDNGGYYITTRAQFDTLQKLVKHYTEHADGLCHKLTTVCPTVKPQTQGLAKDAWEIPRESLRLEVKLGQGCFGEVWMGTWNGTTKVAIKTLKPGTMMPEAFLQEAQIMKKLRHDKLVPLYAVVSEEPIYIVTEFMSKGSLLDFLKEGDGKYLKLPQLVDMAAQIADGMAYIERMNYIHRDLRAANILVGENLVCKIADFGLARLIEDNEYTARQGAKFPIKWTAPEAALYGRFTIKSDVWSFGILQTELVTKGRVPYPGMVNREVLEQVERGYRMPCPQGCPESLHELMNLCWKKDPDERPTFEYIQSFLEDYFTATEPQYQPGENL
# experiment: Yes1 enzyme inhibitory activity (time-resolved fluorometry, biotinylated peptide phosphorylation)
# Assay type: biochemical
# setup_conditions: biotinylated peptide phosphorylation, read-out: YES_IC50

structure_notation	IC50, nM
Cc1cc(Oc2cccc(Cl)c2)cc(F)c1-n1ncc(C(=O)c2cc3cc(Cl)c(NS(C)(=O)=O)cc3[nH]2)c1N	27
Cc1cc(Oc2ccccc2F)cc(F)c1-n1ncc(C(=O)c2cc3cc(OCC(F)F)c(N4CCCC4=O)cc3[nH]2)c1N	1
Cc1cc2cc(C(=O)c3cnn(-c4cnc(Oc5ccccc5Cl)cc4C)c3N)[nH]c2cc1NS(C)(=O)=O	2
